- studyTarget: MASP-2 CCP2-SP (Homo sapiens (Human))
- procedureText: MASP-2 co-crystallization, X-ray crystallography and structure analysis (H-bonds, van der Waals contacts)
- Parameters: unit not given beside the values
- cond: Table A2-1
Where a name gives a salt, the structure may show the parent alone.
parameter: van der Waals contact distance, MASP-2 HIS 483 atom NE2
Write no unit; give the number alone.

Query string: API: value(readout= van der Waals contact distance, MASP-2 HIS 483 atom NE2, system= MASP-2 CCP2-SP (Homo sapiens (Human)), query= C[C@H](NC(=O)[C@H]1C[C@H](Cc2ccccc2)CN1)C(=O)NCc1cc(Cl)ccc1-n1cnnn1 [compound 1371, Hydrochloride] )
Result string: 3.61

Query string: What reported van der Waals contact distance, MASP-2 HIS 483 atom NE2 corresponds to Cc1nc(N)ccc1CNC(=O)[C@H](C)NC(=O)[C@H]1C[C@H](Cc2ccccc2)CN1 [compound 1304] on MASP-2 CCP2-SP (Homo sapiens (Human))?
Result string: 3.65

Query string: Find van der Waals contact distance, MASP-2 HIS 483 atom NE2 (MASP-2 CCP2-SP (Homo sapiens (Human))) for the entry C[C@H](NC(=O)[C@H]1C[C@H](Cc2ccccc2)CN1)C(=O)NCc1cnc2c(c1)c(Cl)cn2C [compound 1450, Dihydrochloride]
Result string: 3.88

Query string: Reported van der Waals contact distance, MASP-2 HIS 483 atom NE2 for MASP-2 CCP2-SP (Homo sapiens (Human)), given Cc1nc(N)ccc1CNC(=O)[C@H](C)NC(=O)[C@H]1C[C@@H](c2ccccc2)CCN1C [compound 1441] ?
Result string: 3.61

Query string: Look up van der Waals contact distance, MASP-2 HIS 483 atom NE2 with MASP-2 CCP2-SP (Homo sapiens (Human)) for this compound: CC(=O)Nc1ccc(CCN[C@H](CCc2ccccc2)C(=O)N[C@@H](C)C(=O)NCc2ccc(N)nc2C)cc1 [compound 1368, Dihydrochloride]
Result string: 3.67

Query string: What value of van der Waals contact distance, MASP-2 HIS 483 atom NE2 on MASP-2 CCP2-SP (Homo sapiens (Human)) does Cc1nc(N)ccc1CNC(=O)[C@H](C)NC(=O)[C@H]1C[C@@H](c2ccccc2)CCN1CCC(=O)O [compound 1411, Trifluoroacetate salt] have?
Result string: 3.46

Query string: Given the entry C[C@H](NC(=O)[C@H](N)CCc1ccccc1)C(=O)NCc1cc(Cl)ccc1O [compound 1031, Hydrochloride] , what van der Waals contact distance, MASP-2 HIS 483 atom NE2 was observed with MASP-2 CCP2-SP (Homo sapiens (Human))?
Result string: 3.17

Query string: Return van der Waals contact distance, MASP-2 HIS 483 atom NE2 measured with MASP-2 CCP2-SP (Homo sapiens (Human)) given this compound: Cc1nc(N)ccc1CNC(=O)C(C)NC(=O)[C@H]1C[C@H](c2cccc(-c3ccccc3)c2)CN1 (stereo in doubt) [compound 1360]
Result string: 3.69

Query string: // fetch MASP-2 CCP2-SP (Homo sapiens (Human)) van der Waals contact distance, MASP-2 HIS 483 atom NE2 for Cc1nc(N)ccc1CNC(=O)[C@H](C)NC(=O)[C@H]1C[C@H](Cc2ccccc2Br)CN1 [compound 1372, Di-trifluoroacetate salt]
Result string: 3.67

Query string: Query for MASP-2 CCP2-SP (Homo sapiens (Human)): what van der Waals contact distance, MASP-2 HIS 483 atom NE2 does the record show for Cc1nc(N)ccc1CNC(=O)[C@H](C)NC(=O)c1cc(Cc2ccccc2)n[nH]1 [compound 1367] ?
Result string: 3.59

Query string: Requested read-out van der Waals contact distance, MASP-2 HIS 483 atom NE2, target or system MASP-2 CCP2-SP (Homo sapiens (Human)), entry Cc1cc(Cl)cc(CNC(=O)[C@H](C)NC(=O)[C@H]2C[C@H](Cc3ccccc3)CN2)c1O [compound 1307]
Result string: 3.5

Query string: Provide the documented van der Waals contact distance, MASP-2 HIS 483 atom NE2 with MASP-2 CCP2-SP (Homo sapiens (Human)) as the system for Cc1nc(N)ccc1CNC(=O)[C@H](C)NC(=O)[C@H]1C[C@@H](c2cccc3ccccc23)CCN1 [compound 1297]
Result string: 3.84

Query string: # returns recorded van der Waals contact distance, MASP-2 HIS 483 atom NE2 (system: MASP-2 CCP2-SP (Homo sapiens (Human))) for C[C@H](NC(=O)[C@H]1C[C@@H](c2ccccc2)CN1)C(=O)NCc1ccc2c(N)nccc2c1 [compound 1089]
Result string: 3.83

Query string: # query: van der Waals contact distance, MASP-2 HIS 483 atom NE2 | item Cc1nc(N)ccc1CNC(=O)[C@H](C)NC(=O)[C@H]1C[C@H](Cc2cc(-c3ccccc3)cs2)CN1 [compound 1399, Dihydrochloride] | system: MASP-2 CCP2-SP (Homo sapiens (Human))
Result string: 3.6

Query string: Give recorded van der Waals contact distance, MASP-2 HIS 483 atom NE2 with MASP-2 CCP2-SP (Homo sapiens (Human)) for the following compound: Cc1nc(N)ccc1CNC(=O)[C@H](C)NC(=O)[C@H]1C[C@H](Cc2ccc(-c3ccccc3)cc2)CN1 [compound 1351]
Result string: 3.9

Query string: van der Waals contact distance, MASP-2 HIS 483 atom NE2 of Cc1nc(N)ccc1CNC(=O)[C@H](C)NC(=O)[C@H]1C[C@H](Cc2cc(Cl)cc(Cl)c2)CN1 [compound 1435, Dihydrochloride] on MASP-2 CCP2-SP (Homo sapiens (Human))?
Result string: 3.6

Query string: Request body: readout van der Waals contact distance, MASP-2 HIS 483 atom NE2, system MASP-2 CCP2-SP (Homo sapiens (Human)), query C[C@H](NC(=O)[C@H]1C[C@H](Cc2ccccc2)CN1)C(=O)NCc1ccc(C(=N)N)cc1 [compound 1306] . Return the value.
Result string: 3.32

Query string: Lab note: need van der Waals contact distance, MASP-2 HIS 483 atom NE2 for Cc1nc(N)ccc1CNC(=O)[C@H](C)NC(=O)[C@H]1C[C@H](Cc2cccc(-c3ccccc3)c2)CN1 [compound 1406] on MASP-2 CCP2-SP (Homo sapiens (Human)), anyone have it?
Result string: 3.67

Query string: Fill in the recorded van der Waals contact distance, MASP-2 HIS 483 atom NE2 for this compound, with MASP-2 CCP2-SP (Homo sapiens (Human)) as test system: Cc1nc(N)ccc1CNC(=O)[C@H](C)NC(=O)[C@H]1C[C@H](Cc2cccc(Cl)c2)CN1 [compound 1328]
Result string: 3.73

----------
- studyTarget: MASP-2 CCP2-SP (Homo sapiens (Human), UniProt O00187)
- Sequence (O00187 445-686): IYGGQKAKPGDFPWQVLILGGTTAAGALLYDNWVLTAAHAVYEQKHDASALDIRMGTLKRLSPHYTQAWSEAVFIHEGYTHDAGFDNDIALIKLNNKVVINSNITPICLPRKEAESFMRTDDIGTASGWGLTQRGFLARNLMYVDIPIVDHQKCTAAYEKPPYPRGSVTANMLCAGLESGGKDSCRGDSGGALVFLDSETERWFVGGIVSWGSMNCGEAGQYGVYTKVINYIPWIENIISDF
- Sequence (O00187 364-432 partner): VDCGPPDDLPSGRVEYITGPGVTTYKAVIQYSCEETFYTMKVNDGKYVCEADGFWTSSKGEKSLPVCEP
- procedureText: MASP-2 co-crystallization, X-ray crystallography and structure analysis (H-bonds, van der Waals contacts)
- cond: Table A5-2 pharmacophore distance, S3/S4 region
parameter: d(N2,CA2)
The response must contain the number and no unit.

Query string: Fill in: d(N2,CA2) of C[C@H](NC(=O)[C@H](N)C1Cc2ccccc2C1)C(=O)NCc1ccc2nc(N)[nH]c2c1 [compound 1059] is ___
Result string: 5.88

Query string: Look up d(N2,CA2) for this molecule: CC(NC(=O)C1CC(Cc2ccccc2)CN1)C(=O)NCc1cnc2c(c1)c(Cl)cn2C.Cl.Cl (mixture of isomers) [1450_A]
Result string: 5.88

Query string: May I ask what d(N2,CA2) has been recorded for C[C@H](NC(=O)[C@@H](CCc1ccccc1)NCCCc1ccc(O)cc1)C(=O)NCc1ccc(C(=N)N)cc1.Cl.Cl [1145_B] ?
Result string: 5.91

Query string: Return reported d(N2,CA2); argument: C[C@H](NC(=O)[C@H](N)CCc1ccccc1)C(=O)NCc1ccc(N)nc1.Cl.Cl [1007_1]
Result string: 6.02

Query string: What measured d(N2,CA2) goes with CC(=O)Nc1ccc(CCNC(CCc2ccccc2)C(=O)NC(C)C(=O)NCc2ccc(C(=N)N)cc2)cc1.Cl.Cl (stereo not shown) [1345_1] ?
Result string: 6.14

Query string: Could you tell me which d(N2,CA2) is on file for Cc1nc(N)ccc1CNC(=O)[C@H](C)NC(=O)[C@H]1C[C@H](Cc2ccccc2Br)CN1.O=C(O)C(F)(F)F.O=C(O)C(F)(F)F [1372_B] ?
Result string: 6.02

Query string: Looking for the measured d(N2,CA2) of C[C@H](NC(=O)[C@H](N)C1Cc2ccccc2C1)C(=O)NCc1ccc2c(N)nccc2c1.Cl.Cl [1088_B] , can you help?
Result string: 6.13

----------
Answer each item with its documented Pharmacophore torsion angle a(O1, O2, N2, C2).
- studyTarget: UniProt O00187
- procedureText: MASP-2 co-crystallization, X-ray crystallography and structure analysis (H-bonds, van der Waals contacts)
- cond: Table A7-1; between pharmacophore elements of the bound compound
Give the value as a plain number.

Query string: Entry under review: C[C@H](NC(=O)[C@H]1C[C@@H](c2ccccc2)CCN1)C(=O)NCc1cc(Cl)ccc1O.Cl [1078_4] . Reported Pharmacophore torsion angle a(O1, O2, N2, C2)?
Result string: 124.98

Query string: Report Pharmacophore torsion angle a(O1, O2, N2, C2) for C[C@H](NC(=O)[C@H](N)CCCc1ccccc1)C(=O)NCc1ccc(C(=N)N)cc1.Cl.Cl [1042_1] please.
Result string: 115.48

Query string: Could you share which Pharmacophore torsion angle a(O1, O2, N2, C2) value was measured for Cc1nc(N)ccc1CNC(=O)C(C)NC(=O)C1CC(c2cccc3ccccc23)CCN1.Cl.Cl (stereo not drawn) [1297_1] ?
Result string: 117.40

Query string: Endpoint output: Pharmacophore torsion angle a(O1, O2, N2, C2) of C[C@H](NC(=O)[C@H]1C[C@@H](c2ccccc2)CCN1)C(=O)NCc1cc(Cl)ccc1O.Cl [1078_10] . Value?
Result string: 123.40

Query string: I am curious: what Pharmacophore torsion angle a(O1, O2, N2, C2) value has been reported for C[C@H](NC(=O)[C@H](N)CCCc1ccccc1)C(=O)NCc1ccc(C(=N)N)cc1.Cl.Cl [1042_2] ?
Result string: 151.54

Query string: Entry `Cc1nc(N)ccc1CNC(=O)[C@H](C)NC(=O)[C@H]1C[C@@H](Cc2ccccc2)CCN1` : reported Pharmacophore torsion angle a(O1, O2, N2, C2) = ?
Result string: 126.15
